Target: hGLP-1R (Homo sapiens, UniProt P43220)
Sequence (P43220 24-463): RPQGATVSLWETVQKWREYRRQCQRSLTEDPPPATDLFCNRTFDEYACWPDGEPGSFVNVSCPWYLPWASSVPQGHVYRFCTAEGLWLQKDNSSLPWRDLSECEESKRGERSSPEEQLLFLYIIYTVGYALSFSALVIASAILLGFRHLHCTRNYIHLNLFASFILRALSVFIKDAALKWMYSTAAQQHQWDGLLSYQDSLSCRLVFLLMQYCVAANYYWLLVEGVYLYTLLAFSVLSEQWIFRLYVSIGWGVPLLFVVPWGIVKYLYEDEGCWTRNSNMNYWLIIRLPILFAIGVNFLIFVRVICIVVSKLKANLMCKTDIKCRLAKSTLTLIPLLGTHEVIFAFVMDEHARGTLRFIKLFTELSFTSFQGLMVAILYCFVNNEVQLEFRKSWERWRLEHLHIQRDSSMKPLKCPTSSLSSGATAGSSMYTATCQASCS
Assay: Functional cAMP activation in the presence of 0.1% casein (no HSA);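 note: intracellular cAMP rise after 30 min at 37 °C read by HTRF, normalized between buffer only (0%) and maximal control ligand (100%), four-parameter variable-slope fit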
Type: cell-based
Conditions: in the presence of 0.1% casein (no HSA); geometric mean; read-out: Relative cAMP EC50, hGLP-1R
Starred links: 1 amine or outer side, 2 acyl side, 3 side chain; linkers in the order of their positions; H or OH if unused. Non-standard residues stand in square brackets, D forms with d. Groups on a side chain read outwards from the residue. No end group written: not given here. *: point of attachment. C20 diacid = O=C(O)CCCCCCCCCCCCCCCCCCC(=O)*; C18 diacid = O=C(O)CCCCCCCCCCCCCCCCC(=O)*; γGlu = O=C(O)[C@H](CCC(=O)[*:2])N[*:1]; αMe4Pal = C[C@](N)(Cc1ccncc1)C(=O)O; αMeY = C[C@](N)(Cc1ccc(O)cc1)C(=O)O; 4Pal = N[C@@H](Cc1ccncc1)C(=O)O; αMeL = CC(C)C[C@](C)(N)C(=O)O; Orn = NCCC[C@H](N)C(=O)O; AEEA = NCCOCCOCC(=O)O; Aib = CC(C)(N)C(=O)O
Reported pEC50 values for a set of substances
The quantity pEC50 is defined as the negative base-10 logarithm of the molar concentration.

# example entries with known answers
# substance, pEC50
data = [
    ("H-Y[Aib]QGTFTSDFS[Orn][αMeL]LDKK([AEEA-γGlu-C18 diacid])AQ[Aib]AFIEWLLEGGPSSGAPPPEGE-NH2 [Example 120]", 8.32),
    ("H-Y[Aib]QGTFTSD[4Pal]SQ[αMeL]LDKK([AEEA-γGlu-C18 diacid])AQ[αMe4Pal]AFIE[αMeY]LIEGGPSSGAPPPSGS-NH2 [Example 844]", 9.21),
    ("Y[Aib]QGTFTSD[4Pal]SQ[αMeL]LD[Orn]K([γGlu-γGlu-C18 diacid])AQ[αMe4Pal]AFIEYLIE[Aib]GPSSGAPPPSGS-NH2 [Example 935]", 8.77),
    ("H-Y[Aib]QGTFTSD[4Pal]SQ[αMeL]LD[Orn]K([AEEA-γGlu-C18 diacid])AQ[αMe4Pal]AFIE[αMeY]LIE[Aib]GPSSGEPPPSGSEE-NH2 [Example 1097]", 8.80),
    ("H-Y[Aib]QGTFTSDFSK[αMeL]LDKK([AEEA-γGlu-C20 diacid])AQ[Aib]AFIEYLLEGGPSSGAPPPGGS-NH2 [Example 18]", 8.64),
]

Switching to the query record.
Query block: Value lookup for pEC50; key = H-Y[Aib]QGTFTSD[4Pal]SQ[αMeL]LD[Orn]K([γGlu-γGlu-C18 diacid])AQ[αMe4Pal]AFIEYLIAGGPSSGEPPPSGSE-NH2 [Example 1008]
Result block: 8.96

Each recorded value in this set is attributed to patent US20240270821A1.
